- Measurement Description: Phenomenex Kinetex C18, 150 × 2.1 mm, 1.7 µm, 30 °C, 0.3 mL/min; A: water + 0.1% formic acid; B: acetonitrile + 0.1% formic acid; gradient (min/%B) 0/2 14/100 17/100 17/2 25/2
- Applied Conditions: stereoisomer not certain
Measured Quantity: LC retention time (min)

- Molecule: "CC12CCC3C(CCC4=CC(=O)CCC43C=O)C1CCC2C(=O)CO (stereo not drawn)"
  U: "min"
  LC retention time: 8.89
- Molecule: "CC12CC(=O)C3C(CCC4CC(O)CCC43C)C1CCC2C(=O)CO (stereo not drawn)"
  U: "min"
  LC retention time: 9.06
- Molecule: "CC12CCC(=O)C=C1CCC1C2C(O)CC2(C)C(C(=O)CC(=O)O)CCC12 (stereo not drawn)"
  U: "min"
  LC retention time: 9.18

###

- Measurement Description: Phenomenex Kinetex C18, 150 × 2.1 mm, 1.7 µm, 30 °C, 0.3 mL/min; A: water + 0.1% formic acid; B: acetonitrile + 0.1% formic acid; gradient (min/%B) 0/2 14/100 17/100 17/2 25/2
- Applied Conditions: stereoisomer not certain
Measured Quantity: LC retention time (min)
Give the quantity in min, number only.

Completed entries (count: 4):
- Compound: "CC12CCC(O)CC1=CCC1C2C(O)CC2(C)C1CCC2(O)C(=O)CO (stereo not given)"
  Measured Quantity: "LC retention time"
  Recorded Result: 8.15
- Compound: "CC12CCC3C(CCC4=CC(=O)CCC43CO)C1CCC2=O (stereo not given)"
  Measured Quantity: "LC retention time"
  Recorded Result: 7.72
- Compound: "CC12CCC3C4CCC(=O)CC4CCC3C1CCC2O (stereo not given)"
  Measured Quantity: "LC retention time"
  Recorded Result: 9.72
- Compound: "CC12CCC3C(CCC4=CC(=O)CCC43C=O)C1CCC2=O (stereo not given)"
  Measured Quantity: "LC retention time"
  Recorded Result: 9.42

Kindly review the next compound as well.
Q: Identify measured LC retention time associated with CC12CCC3C(CC(O)C4CC(O)CCC43C)C1CCC2O (stereo not given)
Result: 8.18

Measured values drawn from the RepoRT retention time repository (doi:10.3390/metabo9050085) for this set.
